// provenance: ChEMBL document CHEMBL3232804

The following compounds are shown together with reported pIC50 values.
Tested on: Plasmodium falciparum
protocol: Antiplasmodial activity against chloroquine-resistant Plasmodium falciparum K1 infected after 72 hrs by Malaria SYBR Green I-staining based fluorescence assay
Type: functional, organism-based
details: K1, 72 h
Lab note: report pIC50 as minus log10 of the concentration in molar units, number only.

{"compound": "Clc1ccc(/N=C(\\NCCCCNc2ccnc3cc(Cl)ccc23)Nc2ccc(Oc3cc(Cl)ccc3Cl)cc2)cc1", "quantitative result": 6.68}
{"compound": "COc1ccc(Oc2ccccc2N/C(=N/c2ccccc2)NCCNc2ccnc3cc(Cl)ccc23)cc1", "quantitative result": 6.71}
{"compound": "COC(=O)/C(C)=C/c1ccc(Oc2ccccc2N/C(=N/c2cccc(Cl)c2)NCCNc2ccnc3cc(Cl)ccc23)cc1", "quantitative result": 6.31}
{"compound": "COc1ccc(Oc2ccc(N/C(=N/c3ccc(Cl)cc3)NCCCCNc3ccnc4cc(Cl)ccc34)cc2)cc1", "quantitative result": 6.86}
{"compound": "COC(=O)/C(C)=C/c1ccc(Oc2ccc(N/C(=N/c3ccccc3)NCCNc3ccnc4cc(Cl)ccc34)cc2)cc1", "quantitative result": 7.18}
{"compound": "COC(=O)/C(C)=C/c1ccc(Oc2ccc(N/C(=N/c3cccc(Cl)c3)NCCCCNc3ccnc4cc(Cl)ccc34)cc2)cc1", "quantitative result": 7.18}
{"compound": "Clc1cccc(/N=C(\\NCCCNc2ccnc3cc(Cl)ccc23)Nc2ccccc2Oc2cc(Cl)ccc2Cl)c1", "quantitative result": 7.11}
{"compound": "COc1ccc(Oc2ccc(N/C(=N/c3ccc(Cl)cc3)NCCNc3ccnc4cc(Cl)ccc34)cc2)cc1", "quantitative result": 6.98}

Lookup result for COC(=O)/C(C)=C/c1ccc(Oc2ccccc2N/C(=N/c2ccc(Cl)cc2)NCCCNc2ccnc3cc(Cl)ccc23)cc1 ; measured pIC50: 6.58

Please fill in: pIC50 reported for COC(=O)/C(C)=C/c1ccc(Oc2ccccc2N/C(=N/c2ccccc2)NCCCNc2ccnc3cc(Cl)ccc23)cc1 = 6.79

Looking up Clc1cccc(/N=C(\NCCCCNc2ccnc3cc(Cl)ccc23)Nc2ccccc2Oc2cc(Cl)ccc2Cl)c1 , I found its pIC50 recorded as 6.36
